The measurements presented in this section are drawn from patent US11242351B2.

Reported Kd for target or system BCL6 BTB domain (biotin-thrombin-BCL6 amino acids 1-129) (Homo sapiens (Human)), by entry.
# value in µM; strip the unit string

Worked set:
| smiles-str | assay-endpoint | readout-value |
| --- | --- | --- |
| C[C@@H]1CN(C)C[C@H](C)N1c1cc(NC(=O)Cn2cc(-c3cc(C(N)=O)c(O)c4c3OCO4)c3c(=O)n4c(nc32)CCC4)c(Cl)c(F)n1 | Kd | 0.00096 |
| C[C@H]1CN(C)C[C@H](C)N1c1cc(NC(=O)Cn2cc(-c3cc(C(N)=O)c(O)c(F)c3F)c3c(=O)n4c(nc32)CCC4)c(Cl)c(F)n1 | Kd | 0.0586 |

Requested read-out Kd, target or system BCL6 BTB domain (biotin-thrombin-BCL6 amino acids 1-129) (Homo sapiens (Human)), entry CCN1CCN(c2cc(NC(=O)Cn3cc(-c4cc(C(N)=O)c(O)c(Cl)c4F)c4c(=O)n5c(nc43)CCC5)c(Cl)c(F)n2)[C@@H](C)C1
0.135
